Data origin: patent US8735623B2

conditions: 1 hour; 37° C.
property_measured: Stability in human plasma (%)
Your answer should be a plain number; it is taken to be in %.

Please review the entries below; each comes with its answer.
1) CC(=O)O.CCOC(=O)CNC(=O)CNC(=O)CN(C)C(=N)N [Agent 2] : 90
2) CC(=O)O.CC(=O)O.CCOC(=O)[C@@H](N)CCCCNC(=O)CN(C)C(=N)N [Agent 4] : 89
3) CCNC(=O)CNC(=O)CN(C)C(=N)N.O=C(O)C(O)C(O)C(=O)O [Agent 3, Creatinyl-Glycine Ethylamide Tartrate] : 90

Value of measured Stability in human plasma for the entry CCNC(=O)C(Cc1ccccc1)NC(=O)CN(C)C(=N)N.Cl (centres unmarked) [Agent 5] : 87

Value of measured Stability in human plasma for the entry CC(=O)O.CC(C)OC(=O)CNC(=O)CN(C)C(=N)N [Agent 1] : 91

* * *

# Stability in human plasma per entry
details: 0.5 hours; 37° C.
Your answer should be a plain number; it is taken to be in %.

Value of measured Stability in human plasma for the entry CCNC(=O)CNC(=O)CN(C)C(=N)N.O=C(O)C(O)C(O)C(=O)O [Agent 3, Creatinyl-Glycine Ethylamide Tartrate] : 95

Value of measured Stability in human plasma for the entry CC(=O)O.CCOC(=O)CNC(=O)CNC(=O)CN(C)C(=N)N : 97

* * *

conditions: 0.5 hours; 37° C.
# Stability in human plasma per entry
Your answer should be a plain number; it is taken to be in %.

1) CC(=O)O.CC(C)OC(=O)CNC(=O)CN(C)C(=N)N [Agent 1] : 99
2) CC(=O)O.CC(=O)O.CCOC(=O)[C@@H](N)CCCCNC(=O)CN(C)C(=N)N [Agent 4] : 100

Value of measured Stability in human plasma for the entry CCNC(=O)C(Cc1ccccc1)NC(=O)CN(C)C(=N)N.Cl (stereo not drawn) [Agent 5] : 97
